- target of assay: Aromatase (Homo sapiens, UniProt P11511)
- Sequence (P11511 whole entry): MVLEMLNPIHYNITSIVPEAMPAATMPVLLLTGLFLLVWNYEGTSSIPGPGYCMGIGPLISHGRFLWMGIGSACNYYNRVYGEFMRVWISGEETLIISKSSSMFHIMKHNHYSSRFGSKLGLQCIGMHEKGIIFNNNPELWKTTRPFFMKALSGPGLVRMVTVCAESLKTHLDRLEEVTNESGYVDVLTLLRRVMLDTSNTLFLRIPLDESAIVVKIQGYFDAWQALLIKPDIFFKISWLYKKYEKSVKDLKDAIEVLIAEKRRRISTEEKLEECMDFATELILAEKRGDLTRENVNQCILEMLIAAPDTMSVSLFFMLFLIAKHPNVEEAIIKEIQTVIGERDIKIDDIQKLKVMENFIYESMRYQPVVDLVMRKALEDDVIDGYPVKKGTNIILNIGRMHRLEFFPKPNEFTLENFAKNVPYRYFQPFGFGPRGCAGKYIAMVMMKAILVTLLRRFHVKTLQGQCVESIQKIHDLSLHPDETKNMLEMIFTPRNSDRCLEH
pIC50: −log10 of the molar value.
Ok so here's the combined literature set: pIC50 for Aromatase (Homo sapiens, UniProt P11511).

Examples with answers:
1. O=C1CCc2cc(C(O)c3cccnc3)cc3c2N1CC3 (stereo not drawn)
< 5.30
2. COc1cc(O)cc(-c2cc3ccc(O)cc3o2)c1CC=C(C)C
< 3.91
3. COc1cc2c(cc1OC)CN(S(=O)(=O)c1ccc(-n3cc(COc4ccccc4C(C)=O)nn3)cc1)CC2
< 4.90

Sample N#Cc1ccc(COc2ccc(C#Cc3ccc(C(F)(F)C(O)(Cn4cnnn4)c4ccc(F)cc4F)nc3)cc2)cc1 (single isomer, unassigned; (+)) ; pIC50 observed: < 4.00

Sample `Oc1ccc([C@@H]2CCc3ccc(O)cc3O2)cc1` ; pIC50 observed: < 3.78

Sample `CCC[C@H](O)C[C@@H]1Cc2cc(OC)c(OC)c(O)c2C(=O)O1` ; pIC50 observed: < 4.79

Sample `Cc1cncc(Cc2ccc(-c3ccccc3)nc2)c1` ; pIC50 observed: < 5.30

Sample `CC(C)=CCc1cc([C@@H]2CCc3ccc(O)cc3O2)ccc1O` ; pIC50 observed: < 3.89
